- assayed system: T1, recombinant human MASP1 active protease (amino acids 297-699, C-terminal His Tag) (human, UniProt P48740 297-699)
- T1 sequence: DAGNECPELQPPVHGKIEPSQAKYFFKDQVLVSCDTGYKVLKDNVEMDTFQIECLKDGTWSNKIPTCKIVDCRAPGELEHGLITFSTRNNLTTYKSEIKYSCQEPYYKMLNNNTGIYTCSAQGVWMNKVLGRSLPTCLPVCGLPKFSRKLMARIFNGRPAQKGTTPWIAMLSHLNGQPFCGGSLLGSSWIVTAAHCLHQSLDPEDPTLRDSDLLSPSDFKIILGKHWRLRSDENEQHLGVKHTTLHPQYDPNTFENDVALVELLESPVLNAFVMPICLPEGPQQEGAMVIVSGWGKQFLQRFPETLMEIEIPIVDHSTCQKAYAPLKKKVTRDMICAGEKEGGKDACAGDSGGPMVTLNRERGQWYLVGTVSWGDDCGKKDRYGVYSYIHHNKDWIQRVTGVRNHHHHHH
- assay notes: cell-based or functional assay
Bridge positions count the residues as written; N and C are the ends. Square brackets hold non-standard residues; d marks the D form. Ends that are not written are not given here. Hyp = O=C(O)[C@@H]1C[C@@H](O)CN1
observation type: human MASP1 IC50 (nM)
Numbers only, in nM.

Quickly give me recorded human MASP1 IC50 for GICSRSL[Hyp]PICIPD-OH (disulfide 3-11; N-terminus assumed; SMILES CC[C@H](C)[C@H](NC(=O)CN)C(=O)N[C@H]1CSSC[C@@H](C(=O)N[C@H](C(=O)N2CCC[C@H]2C(=O)N[C@@H](CC(=O)O)C(=O)O)[C@@H](C)CC)NC(=O)[C@H]([C@@H](C)CC)NC(=O)[C@@H]2CCCN2C(=O)[C@@H]2C[C@@H](O)CN2C(=O)[C@H](CC(C)C)NC(=O)[C@H](CO)NC(=O)[C@H](CCCNC(=N)N)NC(=O)[C@H](CO)NC1=O) [Example 380: GIC+SRSL-(Hyp)-PIC+IPD-OH]
40
